- Tested on: SNB-75 CNS
- Procedure Text: NCI-60 one-dose screen, 48 h
- Assay Context: 10 µM unless noted
The panel holds about 83,000 compounds, 20% with a hit somewhere; the sample as a whole holds those more often. Calls of active or inactive are those of the source. How the source made its calls: active means growth percent below 10; inactive means the rest. Where a SMILES comes first, the peptide text is derived from it. The star is where a group is joined. Trt = c1ccc(C(c2ccccc2)(c2ccccc2)*)cc1; Cbz = O=C(OCc1ccccc1)*
Possible outcomes: active, inactive

[[record]]
compound = "N#CSCc1ccc(Cl)c(CSC#N)c1"
assigned_class = "inactive"

[[record]]
compound = "CCCCCC(CCCCC)C(=O)O"
assigned_class = "inactive"

[[record]]
compound = "CCC(=O)Sc1ccccc1C(=O)Nc1ccc(Cl)cc1"
assigned_class = "inactive"

[[record]]
compound = "CC(C)(C)c1ccc(O)c(C2CCCCC2)c1"
assigned_class = "inactive"

[[record]]
compound = "CC(=Nc1ccc(N(C)C)cc1)c1ccccc1"
assigned_class = "inactive"

[[record]]
compound = "C=C(Cl)C(=NC(C)(C)C)Nc1ccccc1C"
assigned_class = "inactive"

[[record]]
compound = "Nc1nc(N)c2c(ccc3c2ccn3Cc2cccc([N+](=O)[O-])c2)n1"
assigned_class = "active"

[[record]]
compound = "O[C@H]1[C@H]2c3cc4c(cc3CN3CCC(=C[C@@H]1O)[C@H]23)OCO4"
assigned_class = "inactive"

[[record]]
compound = "N[C@H](C(=O)O)[C@@H]1CC(Cl)=NO1"
assigned_class = "inactive"

[[record]]
compound = "COc1cc(NS(C)(=O)=O)ccc1Nc1c2ccccc2nc2ccccc12"
assigned_class = "inactive"

[[record]]
compound = "Oc1c(Br)cc(Cl)cc1C(c1cc(Cl)cc(Br)c1O)C(Cl)(Cl)Cl"
assigned_class = "inactive"

[[record]]
compound = "Cc1ccc(C(=Nc2ccccc2)N=P(c2ccccc2)(c2ccccc2)c2ccccc2)cc1"
assigned_class = "inactive"

[[record]]
compound = "O=C(Nc1cccc(Br)c1)Oc1ccc(Cl)c2cccnc12"
assigned_class = "active"

[[record]]
compound = "COC(=O)C(CSC(c1ccccc1)(c1ccccc1)c1ccccc1)NC(=O)C(CC(N)=O)NC(=O)OCc1ccccc1 (stereo not drawn) (Cbz-Asn-Cys(Trt)-OMe; configuration not given here)"
assigned_class = "inactive"

[[record]]
compound = "S=C(N/N=C/c1ccccn1)Nc1ccccn1"
assigned_class = "inactive"

[[record]]
compound = "CCC(CCCN(CC)CCc1ccccc1)OC(=O)c1cc(OC)c(OC)c(OC)c1 (stereo unspecified)"
assigned_class = "inactive"

[[record]]
compound = "N#CSCc1c(Cl)cccc1Cl"
assigned_class = "inactive"

[[record]]
compound = "O=C1C2=C(Nc3cc([N+](=O)[O-])ccc3N2)OC1c1c2ccccc2cc2ccccc12 (stereo unspecified)"
assigned_class = "inactive"

[[record]]
compound = "CNC(=O)N/N=C/c1ccc([N+](=O)[O-])o1"
assigned_class = "inactive"

[[record]]
compound = "CN(C)c1ccc(N=Nc2cccc3ccccc23)cc1"
assigned_class = "inactive"

[[record]]
compound = "CCC(CC)COC(=O)c1ccc(O)c(O)c1"
assigned_class = "inactive"

[[record]]
compound = "CC(=O)ON=C1C=CC(=C(C#N)c2ccccc2)C=C1"
assigned_class = "inactive"

[[record]]
compound = "CCOC(=O)/C=C/c1ccc([N+](=O)[O-])o1"
assigned_class = "inactive"

[[record]]
compound = "CC1OC(OC2C(OC3CCC4(C)C(CCC5(C)C4CC=C4C6CC(C)(C)CCC6(CO)C(O)CC45C)C3(C)C)OC(C(=O)O)C(OC3OC(COC4OC(CO)C(O)C(O)C4O)C(O)C(O)C3O)C2O)C(O)C(O)C1O (stereo unspecified)"
assigned_class = "active"

[[record]]
compound = "O=C1c2ccccc2C(=O)c2sc(Nc3ccc(Cl)cc3)nc21"
assigned_class = "inactive"

[[record]]
compound = "Cc1cc2nc(CS)[nH]c2cc1C"
assigned_class = "inactive"

[[record]]
compound = "C[n+]1c(/C=C/c2ccc([N+](=O)[O-])cc2)ccc2ccccc21"
assigned_class = "inactive"

[[record]]
compound = "O=C1NC(=O)/C(=C/C=C/c2ccccc2)S1"
assigned_class = "inactive"

[[record]]
compound = "OC(CNc1ccnc2cc(Cl)ccc12)CNc1ccnc2cc(Cl)ccc12"
assigned_class = "inactive"

[[record]]
compound = "COC(=O)c1nc(=S)[nH]c(C(=O)OC)c1C(=O)c1ccccn1"
assigned_class = "inactive"

[[record]]
compound = "O=C(O)c1ccc2c3c(ncnc13)-c1ccccc1C2=O"
assigned_class = "inactive"

[[record]]
compound = "CN(C)c1ccc(C(=C2C=CC(=[N+](C)C)C=C2)c2ccc(N(C)C)cc2)cc1 (tested in a mixture with another compound)"
assigned_class = "active"

[[record]]
compound = "Nc1ccc(SSc2ccc(N)cc2)cc1"
assigned_class = "inactive"

[[record]]
compound = "NC(=S)N/N=C\\c1nccc2c(C(F)(F)C(F)(F)C(F)(F)F)cccc12"
assigned_class = "inactive"

[[record]]
compound = "Cc1ccc2nc(-[n+]3cc4ccccc4cc3C)ccc2c1"
assigned_class = "inactive"

[[record]]
compound = "CCOC(=O)/C(=C\\c1ccc(-c2ccccc2)cc1)C(C)=O"
assigned_class = "inactive"

[[record]]
compound = "CN=C(N)N/N=C(\\C)c1ccc2c(c1)Cc1cc(/C(C)=N/NC(N)=NC)ccc1-2"
assigned_class = "active"

[[record]]
compound = "O=C1C=CC(=O)N1C1c2ccccc2-c2ccccc21"
assigned_class = "inactive"

[[record]]
compound = "O=[N+]([O-])c1ccc(N=Nc2ccc(O)cc2O)cc1"
assigned_class = "inactive"

[[record]]
compound = "O=C(Nc1ccc(F)cc1)ON=C1CCCCC1"
assigned_class = "inactive"

[[record]]
compound = "N#CSCC(=O)c1ccc(Cl)cc1"
assigned_class = "inactive"

